Value source: patent US20240254227A1

Target: T1, human CD300LB transiently expressed on HEK293 cells (human, UniProt A8K4G0 18-201)
T1 construct: CD300LB expression constructs'; also called huCD300LB HEK293
T1 sequence: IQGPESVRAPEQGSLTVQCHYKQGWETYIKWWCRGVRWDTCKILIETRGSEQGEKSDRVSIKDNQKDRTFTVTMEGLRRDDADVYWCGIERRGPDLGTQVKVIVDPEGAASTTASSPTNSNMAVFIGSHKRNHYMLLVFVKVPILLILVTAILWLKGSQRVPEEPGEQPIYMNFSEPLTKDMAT
Experiment: flow cytometry, transfected HEK293, 10 ug/mL, isotype subtracted
TEST_READOUT: gMFI (gMFI)
The figure you give is taken to be in gMFI; do not add the unit.

The value of gMFI measured for the binder anti-CD300LB antibody CD-09 (antibody, V domains shown) VH: QVQLVQSGAEVKKPGASVKVSCKASGYTFTTYAVHWVRQAPGQGLEWMGIINPNSGGTNYAQKFQGRVTMTRDTSTSTVYMELSSLRSEDTAVYYCARDIVPMNNFYNYYYGMDVWGQGTTVTVSS VL: DIQMTQSPSSLSASVGDRVTITCRASQSISSYLNWYQQKPGKAPKLLIYATSTLQSGVPSRFSGSGSGTDFTLTISSLQPEDFATYYCQQSYRIPYTFGQGTKVEIK turned out to be 445

The value of gMFI measured for the binder anti-CD300LB antibody CD-06 (antibody, V domains shown) VH: QVQLVQSGAEVKKPGASVKVSCKASGYTFTTYAVHWVRQAPGQGLEWMGIVNPNSGGTNYAQKFQGRVTMTRDTSTSTVYMELSSLRSEDTAVYYCARDIVPMNNFYNYYYGMDVWGQGTTVTVSS VL: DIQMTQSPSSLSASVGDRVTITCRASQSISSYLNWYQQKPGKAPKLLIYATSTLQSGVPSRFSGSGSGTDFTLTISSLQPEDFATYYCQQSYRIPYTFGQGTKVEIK turned out to be 314
